# Experimental system: T1, recombinant purified human RGM A (R&D Systems Cat# 2459-RM) (human) (UniProt Q96B86)
# T1 sequence: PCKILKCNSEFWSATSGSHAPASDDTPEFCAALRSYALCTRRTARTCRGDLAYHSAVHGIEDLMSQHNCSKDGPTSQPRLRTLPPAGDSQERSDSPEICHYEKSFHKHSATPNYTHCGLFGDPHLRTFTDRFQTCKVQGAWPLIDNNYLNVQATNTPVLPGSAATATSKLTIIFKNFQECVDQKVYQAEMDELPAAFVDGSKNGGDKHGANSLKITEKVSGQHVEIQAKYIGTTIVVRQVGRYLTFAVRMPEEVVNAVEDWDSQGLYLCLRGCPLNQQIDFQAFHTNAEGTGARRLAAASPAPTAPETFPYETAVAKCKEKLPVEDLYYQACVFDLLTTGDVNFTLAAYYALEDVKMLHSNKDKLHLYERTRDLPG
# Experiment notes: SPR (Biacore 3000), antibody captured by anti-human IgG Fc, hRGMA in solution, 25 °C
pKd: −log10 of the molar value.
Reported endpoint: pKd

[[record]]
binder = "h5F9.23 (antibody, human IgG1, V domains shown) VH: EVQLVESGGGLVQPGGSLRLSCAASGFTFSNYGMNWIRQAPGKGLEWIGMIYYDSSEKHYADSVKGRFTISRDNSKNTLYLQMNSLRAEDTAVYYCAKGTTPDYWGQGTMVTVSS VL: DVVLTQSPLSLPVTLGQPASISCRSSQSLEYSDGYTFLEWFQQRPGQSPRLLIYEVSNRFSGVPDRFSGSGSGTDFTLKISRVEAEDVGVYYCFQATHDPLTFGQGTKLEIKR"
reported_endpoint = "pKd"
observed_value = 8.36

